In this section, each of the compounds is paired with its reported IC50.
- assayTarget: GPR17 (Homo sapiens, UniProt Q13304)
- Sequence (Q13304 whole entry): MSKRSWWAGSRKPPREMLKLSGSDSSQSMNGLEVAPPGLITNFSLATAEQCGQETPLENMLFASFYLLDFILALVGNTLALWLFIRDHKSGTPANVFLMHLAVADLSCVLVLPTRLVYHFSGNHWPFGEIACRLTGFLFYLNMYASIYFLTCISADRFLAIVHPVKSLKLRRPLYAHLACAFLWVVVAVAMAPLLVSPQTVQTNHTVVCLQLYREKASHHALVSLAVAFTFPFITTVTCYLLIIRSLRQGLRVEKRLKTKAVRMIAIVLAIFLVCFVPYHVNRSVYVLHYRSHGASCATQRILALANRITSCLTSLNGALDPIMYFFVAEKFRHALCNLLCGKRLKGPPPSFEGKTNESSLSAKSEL
- assayMethodText: Calcium mobilization functional assay (GPR17 Ca2+ assay)
- Assay type: cell-based
- Set-up: host or cells: Flp-In T-REx CHO
- conditionsUsed: CHO hGPR17 cells, inhibition of 50 nM MDL29,951, Calcium 5 dye, FLIPR; read-out: Ca2+ assay pIC50 (converted)

[[record]]
compound = "O=S(=O)(Nc1ncc(Cl)cc1F)c1c[nH]c2c1ccc1ccccc12 [Compound I-191]"
readoutlabel = "IC50"
reported = "3.16 to 31.6 nM"

[[record]]
compound = "COc1nc(NS(=O)(=O)c2c[nH]c3c(F)c(Cl)c(F)cc23)c(F)cc1Cl [Compound I-340]"
readoutlabel = "IC50"
reported = "3.16 to 31.6 nM"

[[record]]
compound = "N#Cc1ccc(NS(=O)(=O)c2c[nH]c3cc(Cl)c(F)cc23)c(F)c1 [Compound I-258]"
readoutlabel = "IC50"
reported = "< 3.16 nM"

[[record]]
compound = "COc1cc(Br)c(F)nc1NS(=O)(=O)c1c[nH]c2cc(Cl)ccc12 [Compound I-349]"
readoutlabel = "IC50"
reported = "< 3.16 nM"

[[record]]
compound = "COc1ccc2c(S(=O)(=O)Nc3cc(F)c(Br)cc3F)c[nH]c2c1 [Compound I-285]"
readoutlabel = "IC50"
reported = "< 3.16 nM"

[[record]]
compound = "O=S(=O)(Nc1ccc(I)cc1F)c1c[nH]c2nc(Cl)ccc12 [Compound I-94]"
readoutlabel = "IC50"
reported = "3.16 to 31.6 nM"

[[record]]
compound = "N#Cc1cc(F)c(NS(=O)(=O)c2c[nH]c3cc(C(F)(F)F)ccc23)cc1F [Compound I-184]"
readoutlabel = "IC50"
reported = "< 3.16 nM"

[[record]]
compound = "COc1c(Cl)ccc2c(S(=O)(=O)Nc3cc(F)c(Cl)cc3F)c[nH]c12 [Compound I-244]"
readoutlabel = "IC50"
reported = "3.16 to 31.6 nM"

[[record]]
compound = "N#Cc1ccc(NS(=O)(=O)c2c[nH]c3cc(Br)ccc23)cc1 [Compound I-134]"
readoutlabel = "IC50"
reported = "< 3.16 nM"

[[record]]
compound = "C#Cc1ccc(NS(=O)(=O)c2c[nH]c3cc(Cl)ccc23)cc1 [Compound I-22]"
readoutlabel = "IC50"
reported = "> 31.6 nM"


Input line: May I ask what IC50 has been recorded for O=S(=O)(Nc1cc(F)ccc1F)c1c[nH]c2cc(Cl)ccc12 [Compound I-9] ?
Output line: 3.16 to 31.6 nM

Input line: What about O=S(=O)(Nc1cc(F)c(Cl)cc1F)c1coc2cc(Cl)ccc12 [Compound I-198] ?
Output line: 3.16 to 31.6 nM

Input line: Item: N#Cc1ccc(NS(=O)(=O)c2c[nH]c3cc(Cl)c(Br)cc23)c(F)c1 [Compound I-343]
Output line: 3.16 to 31.6 nM

Input line: What about this compound? O=S(=O)(Nc1ncc(Cl)cc1F)c1c[nH]c2cc(Br)ccc12 [Compound I-290]
Output line: < 3.16 nM
